system: NCI-H2342; assay: relative viability (nuclei count vs DMSO), 5 days (fraction); higher = more cells survive; conditions: first compound 0.2 µM
VALUE_KIND: relative viability

{"COMPOUND": "CN1CCN(CCOc2cc(OC3CCOCC3)c3c(Nc4c(Cl)ccc5c4OCO5)ncnc3c2)CC1 [Saracatinib] + Nc1ncn([C@H]2C[C@H](O)[C@@H](CO)O2)c(=O)n1 [Decitabine] (partner 2 µM)", "ASSAYED_TARGET": "NCI-H2342", "RECORDED_VALUE": 0.677}
{"COMPOUND": "CN1CCN(CCOc2cc(OC3CCOCC3)c3c(Nc4c(Cl)ccc5c4OCO5)ncnc3c2)CC1 [Saracatinib] + COc1cc2c(Oc3ccc(NC(=O)C4(C(=O)Nc5ccc(F)cc5)CC4)cc3F)ccnc2cc1OCCCN1CCOCC1 [Foretinib] (partner 0.25 µM)", "ASSAYED_TARGET": "NCI-H2342", "RECORDED_VALUE": 0.856}
{"COMPOUND": "CN1CCN(CCOc2cc(OC3CCOCC3)c3c(Nc4c(Cl)ccc5c4OCO5)ncnc3c2)CC1 [Saracatinib] + CCNC(=O)c1noc(-c2cc(C(C)C)c(O)cc2O)c1-c1ccc(CN2CCOCC2)cc1 [Luminespib] (partner 0.01 µM)", "ASSAYED_TARGET": "NCI-H2342", "RECORDED_VALUE": 0.698}
{"COMPOUND": "CN1CCN(CCOc2cc(OC3CCOCC3)c3c(Nc4c(Cl)ccc5c4OCO5)ncnc3c2)CC1 [Saracatinib] + N=C(N)NC(=N)NCCc1ccccc1 [Phenformin] (partner 250 µM)", "ASSAYED_TARGET": "NCI-H2342", "RECORDED_VALUE": 0.529}

---

system: NCI-H1915; assay: relative viability (nuclei count vs DMSO), 5 days (fraction); higher = more cells survive; settings: first compound 0.003162 µM
We begin with a simple list: items and their reported relative viability.

{"COMPOUND": "Cc1cn(-c2cc(NC(=O)c3ccc(C)c(Nc4nccc(-c5cccnc5)n4)c3)cc(C(F)(F)F)c2)cn1 [Nilotinib] + C[C@@H](Oc1cc(-c2cnn(C3CCNCC3)c2)cnc1N)c1c(Cl)ccc(F)c1Cl [Crizotinib] (partner 1 µM)", "ASSAYED_TARGET": "NCI-H1915", "relative viability": 1.18}
{"COMPOUND": "Cc1cn(-c2cc(NC(=O)c3ccc(C)c(Nc4nccc(-c5cccnc5)n4)c3)cc(C(F)(F)F)c2)cn1 [Nilotinib] + COc1cccc2cc(-c3nc([C@H]4CC[C@H](C(=O)O)CC4)n4ncnc(N)c34)[nH]c12 [OSI-027] (partner 0.5 µM)", "ASSAYED_TARGET": "NCI-H1915", "relative viability": 0.659}
{"COMPOUND": "Cc1cn(-c2cc(NC(=O)c3ccc(C)c(Nc4nccc(-c5cccnc5)n4)c3)cc(C(F)(F)F)c2)cn1 [Nilotinib] + NC(=O)Nc1cc(-c2cccc(F)c2)sc1C(=O)N[C@H]1CCCNC1 [AZD7762] (partner 0.2 µM)", "ASSAYED_TARGET": "NCI-H1915", "relative viability": 0.683}
{"COMPOUND": "Cc1cn(-c2cc(NC(=O)c3ccc(C)c(Nc4nccc(-c5cccnc5)n4)c3)cc(C(F)(F)F)c2)cn1 [Nilotinib] + O=C(CCCCCCC(=O)Nc1ccccc1)NO [Vorinostat] (partner 1 µM)", "ASSAYED_TARGET": "NCI-H1915", "relative viability": 0.488}
{"COMPOUND": "Cc1cn(-c2cc(NC(=O)c3ccc(C)c(Nc4nccc(-c5cccnc5)n4)c3)cc(C(F)(F)F)c2)cn1 [Nilotinib] + COc1cc2c(Oc3ccc(NC(=O)C4(C(=O)Nc5ccc(F)cc5)CC4)cc3F)ccnc2cc1OCCCN1CCOCC1 [Foretinib] (partner 0.25 µM)", "ASSAYED_TARGET": "NCI-H1915", "relative viability": 1.21}
